# MEASUREMENT_TARGET: Anoctamin-1 (Mus musculus)
# ASSAY_PROTOCOL: blockers of mouse ANO1 Ca-activated Cl channel – cell-based, HTS, primary screen (AID 588511)
# SETTINGS: HEK293 TMEM16A/YFP iodide influx fluorescence, ionomycin; at 10 µM
About 3,600 (1.2%) of roughly 310,000 compounds were called active.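 The calls were made as follows: active = ratio plate-corrected score three or more library SD toward inhibition, starting fluorescence score within five deviations; inactive = the rest.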 Only a selection was taken, and actives are over-represented in it overall.
Lab note: assign the record to one of class 1 for active, class 0 for inactive

Sample answers from the record:
molecule=CCOC(=O)C1CCN(c2ncnc3c2c(-c2ccccc2)cn3-c2ccc(C)cc2)CC1 measurement_target="Anoctamin-1 (Mus musculus)" qualitative_label="class 0"
molecule=COc1cccc(-n2c(=O)c3c(C)c(C(=O)N(C)C)sc3n(CC(=O)NCCc3ccc(OC)c(OC)c3)c2=O)c1 measurement_target="Anoctamin-1 (Mus musculus)" qualitative_label="class 0"
molecule="COC(C(=O)Nc1ccc(C(C)=O)cc1)c1ccccc1 (configuration not stated)" measurement_target="Anoctamin-1 (Mus musculus)" qualitative_label="class 0"
molecule="CCNC(=O)NNC(=O)C1CC(c2cccs2)=NO1 (configuration not stated)" measurement_target="Anoctamin-1 (Mus musculus)" qualitative_label="class 0"

Exercise: I'd appreciate the recorded outcome for CCOc1cc(/C=C2/C(=N)N3OC(C)=CC3=NC2=O)ccc1OC from this test.
Key: class 0

Exercise: Hey, what did the test say about CC(=O)NCCc1nc2cc(NC(=O)c3ccccc3)ccc2n1C ?
Key: class 0

Exercise: What call does the record list for Cc1ccc([C@@H]2CC=C(C(=O)O)[C@H](c3cccc(Cl)c3)N2S(=O)(=O)c2ccc(C)cc2)cc1 ?
Key: class 0

Exercise: For COc1ccc(OCCCn2cccc2/C=C2/C(=N)N3OC(C)=CC3=NC2=O)cc1 , which call appears in the assay record?
Key: class 1

Exercise: Just curious, what result did O=C(CCCN1CCc2[nH]c3ccc(F)cc3c2C1)c1ccc(F)cc1 get here?
Key: class 0

Exercise: In this assay, the call recorded for CC1CCN(C(=O)c2ccc(CSc3ccc(Cl)cc3)cc2)CC1 was what?
Key: class 1

Exercise: Name the outcome recorded for Cc1ccccc1S(=O)(=O)N1[C@@H](c2cccc(Cl)c2)C(C(=O)O)=CC[C@H]1c1ccc(Cl)cc1 in the assay.
Key: class 1
